target: BRD2 (Homo sapiens)
Sequence (P25440 whole entry): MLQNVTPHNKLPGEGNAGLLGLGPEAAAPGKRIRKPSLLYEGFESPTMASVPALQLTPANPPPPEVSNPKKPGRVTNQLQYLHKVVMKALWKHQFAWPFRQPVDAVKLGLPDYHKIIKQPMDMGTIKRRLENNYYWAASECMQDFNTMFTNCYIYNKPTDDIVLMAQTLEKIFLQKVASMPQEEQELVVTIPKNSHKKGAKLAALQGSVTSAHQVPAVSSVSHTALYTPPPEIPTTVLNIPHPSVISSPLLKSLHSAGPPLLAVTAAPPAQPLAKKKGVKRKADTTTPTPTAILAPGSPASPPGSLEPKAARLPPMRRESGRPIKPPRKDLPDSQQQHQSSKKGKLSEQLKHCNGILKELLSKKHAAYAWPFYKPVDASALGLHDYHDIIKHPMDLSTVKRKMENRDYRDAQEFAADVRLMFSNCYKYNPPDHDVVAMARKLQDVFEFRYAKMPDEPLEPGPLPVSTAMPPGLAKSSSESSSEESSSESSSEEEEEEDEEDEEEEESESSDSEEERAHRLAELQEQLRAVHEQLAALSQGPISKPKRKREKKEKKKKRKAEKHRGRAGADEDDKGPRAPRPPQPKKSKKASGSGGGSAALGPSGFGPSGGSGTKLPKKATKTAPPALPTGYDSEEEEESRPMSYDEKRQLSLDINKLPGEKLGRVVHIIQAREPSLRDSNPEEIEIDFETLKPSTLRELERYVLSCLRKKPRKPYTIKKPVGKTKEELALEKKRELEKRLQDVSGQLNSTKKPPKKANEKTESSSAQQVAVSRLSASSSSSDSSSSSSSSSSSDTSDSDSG
pIC50: −log10 of the molar value.
recorded-endpoint: pIC50

molecule="Cc1nnn(C)c1-c1cnc2c3ccc(C(C)(C)O)cc3n([C@H](c3ccccc3)C3CCOCC3)c2c1 [BMS-986158]" recorded_endpoint=pIC50 data_value=8.93

Ref: paper PMC8952190
